- Test Method Notes: Equilibrium dialysis assay, CD-1 mouse plasma
- Condition Label: CD-1, mouse, plasma
Value Kind: fraction unbound

{"Compound": "Cc1nnn(C)c1-c1cnc2c3c4cnn(C)c4ccc3n([C@H](c3ccccc3)C3CCOCC3)c2c1 [NHWD-870]", "Result Number": 0.026}

* * *

- Test Method Notes: In vivo pharmacokinetics study, mouse
- Condition Label: male, BALB/c nude, plasma, po, 5 mg/kg, PO 5 mg/kg, 4 h, individual mice, read-out: Plasma concentration
- Method: 4–6 weeks old female BALB/c nude mice were used for most experiments, with the exception of 6–8 weeks old female C57BL/6 mice were used for B16F10 experiments, and 6–8 weeks old male BALB/c nude mice and SD rats were used for pharmacokinetic experiments. […] Mouse body weight and tumor sizes were measured every 3 days. […] Ascitic volume and tumor weight were measured by an electronic balance. […] Concentration of drugs in plasma, lung and tumor tissues were measured for the indicated time. […]
Value Kind: concentration at 4 h (ng/mL)

{"Smiles Code": "Cc1nnn(C)c1-c1cnc2c3c4cnn(C)c4ccc3n([C@H](c3ccccc3)C3CCOCC3)c2c1", "Units Of Measure": "ng/mL", "Result Number": 299}

* * *

- Test Method Notes: In vivo pharmacokinetics study, mouse
- Condition Label: male, BALB/c nude, plasma, iv, 1.75 mg/kg, IV 1.75 mg/kg, 0.5 h, individual mice, read-out: Plasma concentration
Value Kind: concentration at 0.5 h

{"Molecule": "Cc1nnn(C)c1-c1cnc2c3c4cnn(C)c4ccc3n([C@H](c3ccccc3)C3CCOCC3)c2c1 [NHWD-870]", "Value Kind": "concentration at 0.5 h", "Result": "388 ng/mL"}

* * *

- Test Method Notes: MTS assay of non-cancerous cells
- Format: cell-based, human
- Condition Label: human, HaCAT cells (immortalized human keratinocytes), 48h; 250 nM; read-out: Cell viability (Sup Fig.4b)

{"Compound": "Cc1nnn(C)c1-c1cnc2c3c4cnn(C)c4ccc3n([C@H](c3ccccc3)C3CCOCC3)c2c1 [NHWD-870]", "Units Of Measure": "%", "viability at 48 h, 0.25 µM": 88.5}

* * *

- Test Method Notes: Equilibrium dialysis assay, SD rat plasma
- Condition Label: SD, rat, plasma

{"Smiles Code": "Cc1nnn(C)c1-c1cnc2c3c4cnn(C)c4ccc3n([C@H](c3ccccc3)C3CCOCC3)c2c1", "fraction unbound": 0.046}

* * *

# Lookup of reported IC50 keyed by entry
- Measurement Target: BRD4 (BD1+BD2) (Homo sapiens)
- Construct: purchased BPS 32612
- Test Method Notes: BRD4 (BD1+BD2) TR-FRET binding assay
- Condition Label: average IC50; nM; read-out: IC50, biochemical activity against BRD4 (BD1 + BD2)

{"Compound": "Cc1nnn(C)c1-c1cnc2c3c4ccn(C)c4ccc3n([C@H](c3ccccc3)C3CCOCC3)c2c1 [NHWD-830]", "Measurement Target": "BRD4 (BD1+BD2) (Homo sapiens)", "Units Of Measure": "nM", "IC50": 10.2}
{"Compound": "Cc1nnn(C)c1-c1cnc2c3cc4cnn(C)c4cc3n([C@H](c3ccccc3)C3CCOCC3)c2c1 [NHWD-850]", "Measurement Target": "BRD4 (BD1+BD2) (Homo sapiens)", "Units Of Measure": "nM", "IC50": 20.6}
{"Compound": "Cc1nnn(C)c1-c1cnc2c3cc4c(cnn4C)cc3n([C@H](c3ccccc3)C3CCOCC3)c2c1 [NHWD-840]", "Measurement Target": "BRD4 (BD1+BD2) (Homo sapiens)", "Units Of Measure": "nM", "IC50": 28.3}
{"Compound": "Cc1nnn(C)c1-c1cnc2c3c4c(ccc3n([C@H](c3ccccc3)C3CCOCC3)c2c1)cnn4C [NHWD-860]", "Measurement Target": "BRD4 (BD1+BD2) (Homo sapiens)", "Units Of Measure": "nM", "IC50": 9.33}

All figures here come from paper PMC7156724.
